// data source = patent US8637499B2

biological target: mTORC1 (mTOR/GbL/Raptor) (Homo sapiens, UniProt P42345); assay: mTOR/GbL/Raptor (mTORC1) ELISA Assay; assay type: biochemical; details: 0.2 nM mTORC1, 10 μM ATP, 50 nM NHis-tagged 4E-BP1; phosphorylation of 4E-BP1; read-out: IC50
pIC50: −log10 of the molar value.

Molecule: Cc1nc2ccc(-c3ccc4c(c3)CN(C(=O)N3CCC(=O)CC3c3cccc(F)c3)CCO4)cc2[nH]1 (centres unmarked)
pIC50: ≥ 7.30

Molecule: Cc1nc2ccc(-c3ccc4c(c3)CN(C(=O)N3CCCCC3c3ccc(F)c(Cl)c3)CCO4)cc2[nH]1 (centres unmarked)
pIC50: ≥ 7.30

Molecule: Cc1nc2ccc(-c3ccc4c(c3)CN(C(=O)N3CCCCC3c3cccc(C(F)(F)F)c3)CCO4)cc2[nH]1 (centres unmarked)
pIC50: 6.15 to 6.60

Molecule: Cc1nc2ccc(-c3ccc4c(c3)CN(C(=O)N3CC[C@H](CF)C[C@@H]3c3ccc(F)c(F)c3)CCO4)cc2[nH]1 (racemic)
pIC50: 6.15 to 6.60

Molecule: Cc1nc2ccc(-c3ccc4c(c3)CN(C(=O)N3CCC(F)(F)CC3)CCO4)cc2[nH]1
pIC50: 6.15 to 6.60

Molecule: Cc1nc2ccc(-c3ccc4c(c3)CN(C(=O)N3CCN(c5cnccn5)CC3)CCO4)cc2[nH]1
pIC50: 6.15 to 6.60

Molecule: COC(=O)Nc1nc2ncc(-c3ccc4c(c3)CN(C(=O)N3CCC(C#N)CC3)CCO4)cc2[nH]1
pIC50: 6.60 to 7.30

Molecule: Cc1ccc(OCC2CN(C(=O)N3CCOc4ccc(-c5ccc6nc(C)[nH]c6c5)cc4C3)CCO2)cc1 (centres unmarked)
pIC50: 5.59 to 6.15

Molecule: Cc1nc2ccc(-c3ccc4c(c3)CN(C(=O)N3CC5CCC3C5)CCO4)cc2[nH]1 (centres unmarked)
pIC50: 6.15 to 6.60

Molecule: Cc1nc2ccc(-c3ccc4c(c3)CN(C(=O)N3CCN(c5cccc(Cl)c5)CC3)CCO4)cc2[nH]1
pIC50: 6.60 to 7.30

Molecule: Cc1nc2ccc(-c3ccc4c(c3)CN(C(=O)NC3[C@H]5C[C@@H]6C[C@@H](C[C@H]3C6)C5)CCO4)cc2[nH]1 (some centres unmarked)
pIC50: 5.59 to 6.15

Molecule: Cc1nc2ccc(-c3ccc4c(c3)CN(C(=O)N3CCCCC3c3ccccc3C)CCO4)cc2[nH]1 (centres unmarked)
pIC50: 5.59 to 6.15

Molecule: O=C(N1CCC(CF)CC1)N1CCOc2ccc(-c3ccc(-c4ncc[nH]4)cc3)cc2C1
pIC50: ≥ 7.30

Molecule: Cc1nc2ccc(-c3ccc4c(c3)CN(C(=O)N3CC[C@H](O)C[C@@H]3c3ccc(F)c(F)c3)CCO4)cc2[nH]1 (racemic)
pIC50: 6.60 to 7.30
